// data source = patent US11407736B2

tested on: L929 cells; experiment: L929 cell necroptosis assay (TNFa + zVAD, CellTiter-Glo); assay type: cell-based, murine; details: Mus musculus, L929, L929 cells, TNFa + zVAD; read-out: L929-CTG-recovery, L929, TNFa + zVAD (IC50)
Give pIC50 for every item shown.
Numbers only, as −log10 of the molar value.

In [3]: df
Out[3]:
                                   compound  reported_value
0  CN1C(=O)[C@@H](NC(=O)c2cc(Oc3ccccc3)ccn2)COc2ccc(C#CC3(O)CCCC3)cc21 [Compound I-98]            7.43
1  CN1C(=O)[C@@H](NC(=O)c2cc(Oc3ccc(F)cc3F)ccn2)COc2ccc(C#CC(C)(C)C)cc21 [Compound I-104]            5.74
2  CN1C(=O)[C@@H](NC(=O)c2cc(Cc3ccc(F)cc3)ccn2)COc2ccc(C#CC(C)(C)O)cc21 [Compound I-125]            6.94
3  CCNC(=O)N1CC(O)(C#Cc2ccc3c(c2)N(C)C(=O)[C@@H](NC(=O)c2cc(Oc4ccccc4)ccn2)CO3)C1 [Compound I-198]            7.41
4  CN1C(=O)[C@@H](NC(=O)c2n[nH]c(Cc3ccccc3)n2)COc2ccc(CCC(=O)N3CCCC3)cc21 [Compound I-10]            4.95

Record pIC50 for all entries; do not skip any.
1. CN1C(=O)[C@@H](NC(=O)n2cc(Cc3ccccc3)cn2)COc2ccc(C#Cc3cccnc3)cc21 [Compound I-214]
2. CC(=O)N1CCC(O)(C#Cc2ccc3c(c2)N(C)C(=O)[C@@H](NC(=O)c2cc(Oc4ccc(F)cc4)ccn2)CO3)CC1 [Compound I-134]
3. CN1C(=O)[C@@H](NC(=O)c2n[nH]c(Cc3ccccc3)n2)COc2ccc(CCCCOCc3ccccn3)cc21 [Compound I-16]
4. CN1C(=O)[C@@H](NC(=O)c2ncn(Cc3c(Cl)cccc3Cl)n2)COc2ccc(CCC(=O)N3CCCC3)cc21 [Compound I-18]
5. CCOC(=O)CCc1ccc2c(c1)N(C)C(=O)[C@@H](NC(=O)c1ncn(Cc3c(Cl)cccc3Cl)n1)CO2 [Compound I-8]
6. COC1(C#Cc2ccc3c(c2)N(C)C(=O)[C@@H](NC(=O)c2cc(Oc4ccccc4)ccn2)CO3)CN(C)C1 [Compound I-155]

Marked response:
1: 6.45; 2: 6.22; 3: 5.25; 4: 6.55; 5: 8.04; 6: 6.50

----------
biological target: RIPK1 (Homo sapiens (Human)); assay: RIPK1 ADP-Glo biochemical kinase assay; conditions: read-out: RIPK1 ADP-Glo Kinase (IC50)
Sequence (Q13546 whole entry, species assumed): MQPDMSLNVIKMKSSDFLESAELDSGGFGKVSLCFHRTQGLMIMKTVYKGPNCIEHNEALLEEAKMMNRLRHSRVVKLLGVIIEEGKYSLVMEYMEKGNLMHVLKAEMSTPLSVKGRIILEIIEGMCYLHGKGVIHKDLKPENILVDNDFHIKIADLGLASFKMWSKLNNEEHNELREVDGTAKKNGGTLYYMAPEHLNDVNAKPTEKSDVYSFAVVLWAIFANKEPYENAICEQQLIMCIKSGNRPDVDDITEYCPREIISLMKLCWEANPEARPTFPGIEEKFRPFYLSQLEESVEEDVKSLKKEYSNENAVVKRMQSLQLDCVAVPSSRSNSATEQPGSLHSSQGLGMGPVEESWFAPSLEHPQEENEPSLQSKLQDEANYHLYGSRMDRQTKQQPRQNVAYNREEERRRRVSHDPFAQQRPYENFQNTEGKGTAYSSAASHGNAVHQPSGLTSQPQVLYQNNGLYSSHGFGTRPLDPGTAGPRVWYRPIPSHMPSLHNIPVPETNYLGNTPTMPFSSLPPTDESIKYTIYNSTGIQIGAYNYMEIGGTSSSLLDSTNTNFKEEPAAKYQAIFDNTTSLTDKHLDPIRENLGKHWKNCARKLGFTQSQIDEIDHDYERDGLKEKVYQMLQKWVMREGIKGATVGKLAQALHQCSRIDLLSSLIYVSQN
measured.property: pIC50
One number for each entry, as −log10 of the molar value.

>>> df
                               entry_smiles            measurement_target  reported_value
0  COC(C)(C)C#Cc1ccc2c(c1)N(C)C(=O)[C@@H](NC(=O)c1cc(Oc3ccccc3)ccn1)CO2  RIPK1 (Homo sapiens (Human))            7.30
1  CCOC(=O)CCc1ccc2c(c1)N(C)C(=O)[C@@H](NC(=O)c1ncn(Cc3ccccc3F)n1)CO2  RIPK1 (Homo sapiens (Human))            7.71
2  CN1C(=O)[C@@H](NC(=O)c2n[nH]c(Cc3ccccc3)n2)COc2cc(CN3CCn4nc(C(F)(F)F)nc4C3)ccc21  RIPK1 (Homo sapiens (Human))            7.10
3  CCOC(=O)CCc1ccc2c(c1)N(C)C(=O)[C@@H](NC(=O)c1n[nH]c(Cc3ccccc3)n1)CO2  RIPK1 (Homo sapiens (Human))            7.72
4  CN1C(=O)[C@@H](NC(=O)c2n[nH]c(Cc3ccc(F)cc3)n2)COc2ccc(C#CC(C)(C)O)cc21  RIPK1 (Homo sapiens (Human))            7.46

Fill in pIC50 for each of the 8 compounds listed.
1. CN1C(=O)[C@@H](NC(=O)c2n[nH]c(Cc3ccccc3)n2)COc2ccc(C#CCN3CCOCC3)cc21
2. CN1C(=O)[C@@H](NC(=O)n2cc(Cc3ccc(F)cc3)cn2)COc2ccc(C#CC3(O)CCOCC3)cc21
3. CC(C)CCc1ccc2c(c1)N(C)C(=O)[C@@H](NC(=O)c1cc(Oc3ccccc3)ccn1)CO2
4. COC1(C#Cc2ccc3c(c2)N(C)C(=O)[C@@H](NC(=O)c2cc(Oc4ccccc4)ccn2)CO3)CN(C)C1
5. CN1C(=O)[C@@H](NC(=O)c2n[nH]c(Cc3ccccc3)n2)COc2ccc(CCC(=O)O)cc21
6. CC(=O)N1CCC(O)(C#Cc2ccc3c(c2)N(C)C(=O)[C@@H](NC(=O)c2cc(Oc4ccc(F)cc4)ccn2)CO3)CC1
7. CN1C(=O)[C@@H](NC(=O)n2ccc(Cc3ccc(F)cc3)n2)COc2ccc(C#CC3(O)CCC3)cc21
8. CCOC(=O)CCc1ccc2c(c1)N(C)C(=O)[C@@H](NC(=O)c1ncn(Cc3c(Cl)cccc3Cl)n1)CO2

Marked response:
7.50
7.56
6.50
7.61
6.72
7.28
6.85
7.28

Exam item: Which pIC50 is listed for CN1C(=O)[C@@H](NC(=O)c2cc(OC3CCCC3)ccn2)COc2ccc(C#CC(C)(C)O)cc21 ?
Marked response: 7.56
